Tested on: T-47D
procedureText: Standard cell panel (Table 7B)
Format: cell-based
studyConditions: Homo sapiens, T47D
Source text: PBD dimer control 1 and PBD dimer control 2 were further evaluated in standard cell panels against a number of cell lines.
measurementKind: IC50 (pM)
Answer in pM, number only, no unit symbol.

-- ask Fill in reported IC50 for this entry: C=C1C[C@H]2C=Nc3cc(OCCCCCOc4cc5c(cc4OC)C(=O)N4CC(=C)C[C@H]4C=N5)c(OC)cc3C(=O)N2C1 [PBD dimer control 1]
-- reply 32

----------
Listed here: items and their measured pIC50.
Tested on: UACC-257
procedureText: CellTiter-Glo toxicity, 4 days (Example 9)
Format: cell-based
studyConditions: Homo sapiens, UACC-257, 96 h, 4 days of drug incubation; Table 7A
Notebook: values listed as pIC50 are -log10 of the concentration (mol/L).

# count of solved cases: 3
molecule	measurementKind	valueReported
C=C1C[C@H]2C(O)N(C(=O)OC[C@@H](C)SSC(C)C)c3cc(OC)c(OC)cc3C(=O)N2C1 (stereo partly shown) [PBD monomer disulfide prodrug 15]	pIC50	5.82
C=C1C[C@H]2C(O)N(C(=O)OCc3ccc(SSC(C)C)cc3)c3cc(OC)c(OC)cc3C(=O)N2C1 (stereo partly shown) [PBD monomer disulfide prodrug 19]	pIC50	6.83
C=C1C[C@H]2C(O)N(C(=O)OCC(C)(C)SSC(C)C)c3cc(OC)c(OC)cc3C(=O)N2C1 (stereo partly shown) [PBD monomer disulfide prodrug 10]	pIC50	5.32

Now take the following molecule into account.
-- ask Recall the reported pIC50 of C=C1C[C@H]2C(O)N(C(=O)OCC3(SSCC)CCC3)c3cc(OC)c(OC)cc3C(=O)N2C1 (stereo partly shown) [PBD monomer disulfide prodrug 3] on UACC-257 and write it down.
-- reply 6.45

----------
Listed here: items and their measured pIC50.
Test system: UACC-257
procedureText: CellTiter-Glo toxicity, 4 days (Example 9)
Type: cell-based
studyConditions: Homo sapiens, UACC-257, 96 h, 4 days of drug incubation; Table 7A
Protocol: The toxicity of various PBD monomer disulfide prodrugs and PBD dimer disulfide prodrugs was evaluated on UACC-257, Igrov-1 and A2058 cell lines. Cells were seeded in 384-well plate and treated with drug 24 hours later. After 4 days of drug incubation, the cell viability was determined using Promega CellTiter-Glo luminescent reagent, which measures ATP level (an indirect measure of cell number). The luminescent intensity was measured on PerkinElmer Envision reader. […]
Notebook: values listed as pIC50 are -log10 of the concentration (mol/L).

compound	targetOfAssay	pIC50
C=C1C[C@H]2C=Nc3cc(OC)c(OC)cc3C(=O)N2C1 [PBD monomer control 1, reference compound]	UACC-257	6.74
C=C1C[C@H]2C(O)N(C(=O)OC[C@@H](C)SSC3COC3)c3cc(OC)c(OC)cc3C(=O)N2C1 (stereo partly drawn) [PBD monomer disulfide prodrug 26]	UACC-257	6.48

-- ask Fill in reported pIC50 for this entry: C=C1C[C@H]2C=Nc3cc(OCCCCCOc4cc5c(cc4OC)C(=O)N4CC(=C)C[C@H]4C=N5)c(OC)cc3C(=O)N2C1 [PBD dimer control 1]
-- reply 9.02

-- ask Fill in reported pIC50 for this entry: C=C1C[C@H]2C(O)N(C(=O)OCC3(SSCCO)CCCC3)c3cc(OC)c(OC)cc3C(=O)N2C1 (stereo partly drawn) [PBD monomer disulfide prodrug 8]
-- reply 6.71

----------
Tested on: Igrov-1
procedureText: CellTiter-Glo toxicity, 4 days (Example 9)
Assay type: cell-based
studyConditions: 4 days of drug incubation; Table 7A
measurementKind: IC50
Please answer using a numeric value trailed by its unit.

-- ask Fill in reported IC50 for this entry: C=C1C[C@H]2C(O)N(C(=O)OCC3(SSCC)CCOC3)c3cc(OC)c(OC)cc3C(=O)N2C1 (single isomer, unassigned) [PBD monomer disulfide prodrug 30]
-- reply 235 nM

----------
Tested on: A2058
procedureText: Standard cell panel (Table 7B)
Type: cell-based
studyConditions: Homo sapiens
measurementKind: IC50 (nM)
Answer in nM, number only, no unit symbol.

-- ask Fill in reported IC50 for this entry: C=C1C[C@H]2CNc3cc(OCCCCCOc4cc5c(cc4OC)C(=O)N4CC(=C)C[C@H]4CN5)c(OC)cc3C(=O)N2C1 [PBD dimer control 2]
-- reply 5.3

----------
System: MDA-MB-231
procedureText: Standard cell panel (Table 7B)
Type: cell-based
studyConditions: Homo sapiens
measurementKind: pIC50
Notebook: values listed as pIC50 are -log10 of the concentration (mol/L).

-- ask Fill in reported pIC50 for this entry: C=C1C[C@H]2CNc3cc(OCCCCCOc4cc5c(cc4OC)C(=O)N4CC(=C)C[C@H]4CN5)c(OC)cc3C(=O)N2C1 [PBD dimer control 2]
-- reply 7.14

----------
Test system: UACC-257
procedureText: CellTiter-Glo toxicity, 4 days (Example 9)
Format: cell-based
studyConditions: Homo sapiens, UACC-257, 96 h, 4 days of drug incubation; Table 7A
pIC50: −log10 of the molar value.
Outcome label depends on pIC50 relative to 6: at/above gives satisfied, below gives not satisfied.

# example entries with known answers
compound	group
C=C1C[C@H]2C(O)N(C(=O)OCCSSC3CCCC3)c3cc(OC)c(OC)cc3C(=O)N2C1 (stereo partly drawn) [PBD monomer disulfide prodrug 28]	not satisfied
C=C1C[C@H]2C(O)N(C(=O)OC[C@@H](C)SSC3CCOCC3)c3cc(OC)c(OC)cc3C(=O)N2C1 (stereo partly drawn) [PBD monomer disulfide prodrug 24]	not satisfied
C=C1C[C@H]2C(O)N(C(=O)OCCSSCCO)c3cc(OC)c(OC)cc3C(=O)N2C1 (stereo partly drawn) [PBD monomer disulfide prodrug 29]	satisfied
C=C1C[C@H]2C(O)N(C(=O)OCC3(SSCC(=O)O)CCC3)c3cc(OC)c(OC)cc3C(=O)N2C1 (stereo partly drawn) [PBD monomer disulfide prodrug 9]	not satisfied
C=C1C[C@H]2C(O)N(C(=O)OCc3ccc(SSC(C)(C)C)cc3)c3cc(OC)c(OC)cc3C(=O)N2C1 (stereo partly drawn) [PBD monomer disulfide prodrug 6]	satisfied

Next up:
-- ask Decide: is the reported value of pIC50 for C=C1C[C@H]2C(O)N(C(=O)OCC(C)(C)SSC(C)(C)C)c3cc(OC)c(OC)cc3C(=O)N2C1 (stereo partly drawn) [PBD monomer disulfide prodrug 4] equal to or greater than 6?
-- reply not satisfied

----------
procedureText: Disulfide cleavage by glutathione (GSH), LC/MS
Type: physicochemical
studyConditions: 15 uM compound, 4 mM GSH, pH 7.0, 37 C
measurementKind: % Remaining at 24 h by GSH (%)
Answer in %, number only, no unit symbol.

# count of solved cases: 8
compound	unit	% Remaining at 24 h by GSH
C=C1C[C@H]2C(O)N(C(=O)OCC(C)(C)SSC(C)(C)C)c3cc(OC)c(OC)cc3C(=O)N2C1 (stereo partly drawn) [PBD monomer disulfide prodrug 4]	%	99.9
C=C1C[C@H]2C(O)N(C(=O)OCC3(SSCC)CCOC3)c3cc(OC)c(OC)cc3C(=O)N2C1 (single isomer, unassigned) [PBD monomer disulfide prodrug 11]	%	0
C=C1C[C@H]2C(O)N(C(=O)OC[C@@H](C)SSCC)c3cc(OC)c(OC)cc3C(=O)N2C1 (stereo partly drawn) [PBD monomer disulfide prodrug 12]	%	9.5
C=C1C[C@H]2C(O)N(C(=O)OCCSSC(C)(C)C)c3cc(OC)c(OC)cc3C(=O)N2C1 (stereo partly drawn) [PBD monomer disulfide prodrug 16]	%	73.2
C=C1C[C@H]2C(O)N(C(=O)OCC(CN(C)C)SSC(C)C)c3cc(OC)c(OC)cc3C(=O)N2C1 (stereo partly drawn) [PBD monomer disulfide prodrug 20]	%	0
C=C1C[C@H]2C(O)N(C(=O)OCCSSCC)c3cc(OC)c(OC)cc3C(=O)N2C1 (stereo partly drawn) [PBD monomer disulfide prodrug 1]	%	0.5
C=C1C[C@H]2C(O)N(C(=O)OCC3(SSCC)CCCCC3)c3cc(OC)c(OC)cc3C(=O)N2C1 (stereo partly drawn) [PBD monomer disulfide prodrug 18]	%	18.7
C=C1C[C@H]2C(O)N(C(=O)OCCSSCCO)c3cc(OC)c(OC)cc3C(=O)N2C1 (stereo partly drawn) [PBD monomer disulfide prodrug 29]	%	0

-- ask Fill in reported % Remaining at 24 h by GSH for this entry: C=C1C[C@H]2C(O)N(C(=O)OCc3ccc(SSC(C)(C)C)cc3)c3cc(OC)c(OC)cc3C(=O)N2C1 (stereo partly drawn) [PBD monomer disulfide prodrug 6]
-- reply 2.1

-- ask Fill in reported % Remaining at 24 h by GSH for this entry: C=C1C[C@H]2C(O)N(C(=O)OCC(C)(C)SSCC)c3cc(OC)c(OC)cc3C(=O)N2C1 (stereo partly drawn) [PBD monomer disulfide prodrug 14]
-- reply 3

-- ask Fill in reported % Remaining at 24 h by GSH for this entry: C=C1C[C@H]2C(O)N(C(=O)OC[C@@H](C)SSC3COC3)c3cc(OC)c(OC)cc3C(=O)N2C1 (stereo partly drawn) [PBD monomer disulfide prodrug 26]
-- reply 0

-- ask Fill in reported % Remaining at 24 h by GSH for this entry: C=C1C[C@H]2C(O)N(C(=O)OC[C@@H](C)SSC3CCOCC3)c3cc(OC)c(OC)cc3C(=O)N2C1 (stereo partly drawn) [PBD monomer disulfide prodrug 24]
-- reply 0
